Tested on: HCT-116 colon
Test: NCI-60 one-dose screen, 48 h (100 = growth as untreated, 0 = no growth, -100 = all killed)
Settings: 10 µM unless noted
Method: Growth inhibition of the HCT-116 human tumor cell line is measured as a screen for anti-cancer activity. Cells are grown in 96 well plates and exposed to the test compound for 48 hours. Compounds are tested at a single concentration, which is 10^-5 M for most compounds. The reported endpoint is percent growth (GI% or GIPRCNT), where numbers from 0 - 100% represent growth inhibition, and numbers from -100% - 0 represent cell death. For example, a value of 40 represents 60% growth inhibition. […]
Compounds without any hit were thinned out: in the full panel of roughly 83,000, 20% have a hit.
Lab note: cut-off is 30%. Strictly less in growth is YES. Exactly 30% or more is NO.

Is 30% strictly greater than the molecule's reported growth? molecule: `N#CSc1c[nH]c2cccc(/C=C/C(=O)/C=C(/C=C/c3cccc4[nH]cc(SC#N)c34)OB(F)F)c12`
YES

Okay, and `C=C(C)[C@@H]1CCC[C@]2(COS(=O)(=O)c3ccc(C)cc3)CC[C@]3(C)[C@@H](CC[C@@H]4[C@@]5(C)CCCNC(C)(C)[C@@H]5CC[C@]43C)[C@@H]12` ?
YES

For `CCOCCNC1=C(Cl)C(=O)c2ccccc2C1=O` then?
NO

Another molecule to check: `C=C(C)[C@@H]1CC[C@]2(C(=O)N3CCOCC3)CC[C@]3(C)[C@H](CC[C@@H]4[C@@]5(C)C/C(=C/c6ccncc6)C(=O)C(C)(C)[C@@H]5CC[C@]43C)[C@@H]12`
NO

Also need `Cc1ccc2c(n1)C(=O)C(Br)=C(CC(C)C)C2=O` , thanks.
NO

Do the same for `O=C(Nc1cccc(-c2ccc(Cl)c(C(F)(F)F)c2)c1)C1CCN(Cc2cccc3cccnc23)CC1` please
YES

Similarly, `NC(=O)C(=O)c1ccccc1NC=O` ?
NO

What about COc1cc2c(c(OC)c1OC)CCC(c1cccc(C(=O)Nc3ccc(C#N)cc3)c1)O2 (stereo not drawn) ?
NO

* * *

tested on: RXF 393 renal; assay: NCI-60 one-dose screen, 48 h (100 = growth as untreated, 0 = no growth, -100 = all killed); conditions: 10 µM unless noted
About 83,000 compounds went through this panel and 20% of them were active in at least one assay; those are over-represented in the sample as a whole.
Lab note: anything with growth at or over 60% counts as met; the rest go in not met.

Can `NC(=O)CSc1oc(-c2ccccc2)nc1S(=O)(=O)c1ccc(Br)cc1` be said to have growth at or above 60%?
not met

Same for `CCCCNC(=O)Oc1ccc(/C(=C(/C)Cc2ccc(OC)cc2)c2ccc(OCCN(CC)CC)cc2)cc1`
met

Same read-out for `Fc1cccc(Oc2ccc(Nc3ncnc4ccc(OCCCN5CCOCC5)cc34)cc2Cl)c1` ?
not met

Also `Cn1cc(-c2nonc2-c2cn(C)c3ccccc23)c2ccccc21` ?
not met

Next molecule: `CC/C(=C(/c1ccc(Cl)cc1)c1ccc(OCCN(C)C)cc1)c1ccc(Cl)cc1`
met

* * *

tested on: SR leukemia; experiment: NCI-60 one-dose screen, 48 h; conditions: 10 µM unless noted
Compounds without any hit were thinned out: in the full panel of roughly 83,000, 20% have a hit. Active and inactive are the calls of the source. How the source made its calls: active means growth percent below 10; inactive means the rest.
Allowed answers: T (active), F (inactive)

For `COC(=O)/C=C1/SC(=Nc2ccc(C(F)(F)F)cc2)N(CCc2c[nH]c3ccc(O)cc23)C1=O` , which call appears in the assay record?
T

# iterate: O=C1NC2(Nc3ccccc31)C(=O)Nc1c(Cl)cc(Cl)cc12 (centres undefined)
F

Would you kindly repeat that for `CN(C)c1ccc(-c2c(C#N)c(N)nn2C(=O)c2ccc(NC(=O)c3ccccn3)cc2)cc1` ?
F

And then `COc1ccc(C/C(C)=C(/c2ccc(OCCN(C)C)cc2)c2ccc(OC(=O)NCc3ccccc3)cc2)cc1` , what is it?
T

Now the same for Nc1ncnc2c1C(c1ccccc1)c1ccc3ccccc3c1O2 (centres undefined)
F

Input `Clc1cc(Cl)c(Cl)c(-c2nnc(SCc3ccncc3Br)o2)c1`
T

Repeat with `Cc1ccc(Nn2c(SCC(=O)Nc3nc(-c4ccccc4)cs3)nc(C)c2C)cc1`
F

Would you kindly repeat that for `CCOC(=O)c1c(C(=O)c2cn(C)c3ccc(Br)cc23)c(-c2cn(C)c3ccc(Br)cc23)n(NC(=O)OC(C)(C)C)c1C` ?
F

Ok, now Nc1n[nH]c2ccc([C@H]3[C@@H]4C5CCC(C5)[C@@H]4c4c(ccc5[nH]ncc45)N3S(=O)(=O)C3CC3)cc12 (some centres undefined)
F
